Kindly supply the reported pIC50 values for the records listed here.
- study_target: recombinant E. coli FabI enzyme (Escherichia coli, UniProt P0AEK4)
- Construct: 6-His (C); made in house; host or cells: prokaryotic expression vector
- Sequence (P0AEK4 whole entry): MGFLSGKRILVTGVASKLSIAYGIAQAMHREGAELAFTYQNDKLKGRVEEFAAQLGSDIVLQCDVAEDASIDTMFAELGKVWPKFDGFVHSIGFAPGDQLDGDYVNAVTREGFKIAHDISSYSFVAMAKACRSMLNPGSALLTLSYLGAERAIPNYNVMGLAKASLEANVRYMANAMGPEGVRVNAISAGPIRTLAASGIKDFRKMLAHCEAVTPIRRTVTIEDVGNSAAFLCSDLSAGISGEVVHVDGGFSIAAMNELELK
- protocol_details: FabI inhibition, fluorescence-based NADH assay
- Type: biochemical
- conditions: recombinant E. coli FabI 40 nM, 60 min pre-incubation, NADH fluorescence; read-out: IC50
Structures can show the parent of a compound that is named as a salt.
Please express pIC50 as -log10 of the molar concentration.

(Q) Can you look up pIC50 on recombinant E. coli FabI enzyme (Escherichia coli, UniProt P0AEK4) for Oc1cc(CC(F)(F)F)ccc1Oc1cccc(F)n1 [Example 27] ?
(A) 6.33

(Q) Can you look up pIC50 on recombinant E. coli FabI enzyme (Escherichia coli, UniProt P0AEK4) for Oc1cc(C(F)=C(F)F)ccc1Oc1cccc(F)n1 [Example 28] ?
(A) 6.07

(Q) Can you look up pIC50 on recombinant E. coli FabI enzyme (Escherichia coli, UniProt P0AEK4) for CCc1ccc(Oc2cc(F)ccc2N)c(O)c1 [Example 50] ?
(A) 6.52

(Q) Can you look up pIC50 on recombinant E. coli FabI enzyme (Escherichia coli, UniProt P0AEK4) for CCCc1ccc(Oc2cccc(F)n2)c(O)c1 [Example 5] ?
(A) 6.01

(Q) Can you look up pIC50 on recombinant E. coli FabI enzyme (Escherichia coli, UniProt P0AEK4) for CCc1ccc(Oc2ccc(C(C)=O)cc2F)c(OC(=O)CN)c1 [Example 85, acetate hydrochloride] ?
(A) 6.96

----------
Kindly supply the reported log10 of IC50 values for the records listed here.
- study_target: recombinant E. coli FabI enzyme (Escherichia coli, UniProt P0AEK4)
- Construct: 6-His (C); made in house; host or cells: prokaryotic expression vector
- protocol_details: FabI inhibition, fluorescence-based NADH assay
- Type: biochemical
Scale: decimal log of IC50, IC50 in nM.

(Q) Param item = "CCCc1ccc(Oc2cccnc2N)c(O)c1" ; retrieve measured log10 of IC50.
(A) 1.96

(Q) Param item = "CCc1ccc(Oc2ccc(C(C)=O)cc2F)c(O)c1" ; retrieve measured log10 of IC50.
(A) 2.18

(Q) Param item = "CCc1ccc(Oc2ccc(NCCCCO)cc2F)c(O)c1" ; retrieve measured log10 of IC50.
(A) 2.61

(Q) Param item = "CCc1ccc(Oc2ccc(S(C)(=O)=O)cc2F)c(O)c1" ; retrieve measured log10 of IC50.
(A) 2.11

(Q) Param item = "CCc1cc(O)c(Oc2cccc(F)n2)cc1F" ; retrieve measured log10 of IC50.
(A) 3.04

(Q) Param item = "CCCNS(=O)(=O)c1ccc(Oc2ccc(CC)cc2O)c(F)c1" ; retrieve measured log10 of IC50.
(A) 2.52

(Q) Param item = "CCCc1ccc(Oc2ccc(OC)cc2)c(O)c1" ; retrieve measured log10 of IC50.
(A) 2.71

(Q) Param item = CCCc1ccc(Oc2cc(F)nc(F)c2)c(O)c1 [Example 25B] ; retrieve measured log10 of IC50.
(A) 2.76

(Q) Param item = "CCc1ccc(Oc2cccnc2N)c(O)c1" ; retrieve measured log10 of IC50.
(A) 1.84

(Q) Param item = "CCc1cc(O)c(Oc2cccnc2F)cc1F" ; retrieve measured log10 of IC50.
(A) 1.49

(Q) Param item = "CCc1cc(O)c(Oc2cccnc2N)cc1F" ; retrieve measured log10 of IC50.
(A) 2.00

The reported measurements were obtained from patent US9309179B2.
